As shown below, each of these compounds has a reported pIC50 value.
# experimental-target: active p38 alpha enzyme (Upstate Biotechnology) (Homo sapiens)
# Construct: purchased Upstate Biotechnology
# Sequence (Q16539 whole entry): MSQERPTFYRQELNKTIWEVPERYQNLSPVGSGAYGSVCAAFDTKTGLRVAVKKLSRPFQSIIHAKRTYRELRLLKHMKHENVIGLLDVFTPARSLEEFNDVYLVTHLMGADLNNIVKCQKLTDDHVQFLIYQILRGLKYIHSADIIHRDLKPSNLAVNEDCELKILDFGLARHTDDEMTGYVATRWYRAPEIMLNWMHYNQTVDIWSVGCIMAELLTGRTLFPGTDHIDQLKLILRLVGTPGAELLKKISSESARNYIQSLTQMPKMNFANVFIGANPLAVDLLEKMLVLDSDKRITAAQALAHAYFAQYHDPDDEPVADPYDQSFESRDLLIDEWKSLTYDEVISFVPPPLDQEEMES
# experiment-summary: p38α biochemical assay (ATP turnover, luminescent detection, Cambrex PKlight)
# measurement-parameters: p38α kinase; Table 1 Biological Activity
pIC50: −log10 of the molar value.

Observe how each entry below is paired with its result.
compound	pIC50
Cc1nc(-c2ccc(F)cc2)c(-c2nc(C(=O)NCCOc3ccccc3)cs2)s1	≥ 6.00
Cc1nc(-c2ccc(F)cc2)c(-c2nc(C(=O)N3CCN(c4ccc(C(F)(F)F)cc4)CC3)cs2)s1	< 6.00
CC(C)NC(=O)c1csc(-c2c(-c3ccc(F)cc3)noc2CNc2ccc(C(F)(F)F)cc2)n1	< 6.00
CCOC(=O)CC(C)NC(=O)c1csc(-c2c(-c3ccc(F)cc3)n[nH]c2C2CCNCC2)n1 (stereo not shown)	< 6.00
O=C(NC1CCN(Cc2ccccc2)CC1)c1csc(-c2c(-c3ccc(F)cc3)n[nH]c2C2CCNCC2)n1	< 6.00
Cc1ccccc1CNC(=O)c1csc(-c2c(-c3ccc(F)cc3)n[nH]c2C2CCNCC2)n1	< 6.00

Note: attention shifts to another entry.
The compound listed as Cc1nc(-c2ccc(F)cc2)c(-c2nc(C(=O)Nc3c(C)cccc3C(C)(C)C)cs2)s1 shows pIC50 equal to ≥ 6.00
